Protocol summary: Single dose 300 mg / 450 mg pharmacokinetic, safety and tolerability study in healthy male and female subjects
Protocol conditions: both, human, plasma, po, 300 mg
Measurement label: concentration at 8 h (ng/mL)
Write the number in ng/mL without appending the unit.

## Task Entry under review: O=C1NCC2(c3ccc(Cl)c(Cl)c3)CC12 (stereo not shown) . Reported concentration at 8 h?
## Result 1900

---

Protocol summary: Single rising oral dose (10-150 mg IR) safety, tolerance and pharmacokinetics in healthy male volunteers
Type: in vivo, human
Protocol conditions: male, human, plasma, oral, 100 mg, Mean (n = 7); read-out: AUC0-t
Measurement label: AUC(0-t) (ng·h/mL)
Write the number in ng·h/mL without appending the unit.

## Task Entry under review: `Clc1ccc([C@]23CNC[C@H]2C3)cc1Cl` . Reported AUC(0-t)?
## Result 4810

Reference for the values: patent US20160346249A1
